Target: hOX1R (orexin-1 receptor) (Homo sapiens, UniProt O43613)
Experiment: FLIPR Ca2+ flux assay, hOX1R
Details: CHO cells expressing the orexin-1 receptor (head: hOX1R; method: rat); agonist 70 pM Ala-6,12 orexin-A
# IC50 per record follows

query: Supply IC50 measured with hOX1R (orexin-1 receptor) (Homo sapiens, UniProt O43613) for C[C@@H]1C[C@@H](Nc2cc(OCC(F)F)ccn2)CN1C(=O)c1ccccc1C1(C#N)CC1 .
result: 10 µM

query: Supply IC50 measured with hOX1R (orexin-1 receptor) (Homo sapiens, UniProt O43613) for COc1ccnc(N[C@@H]2C[C@@H](C)N(C(=O)c3ccccc3C3(C#N)CC3)C2)c1 .
result: 2.72 µM

New cases:
query: Supply IC50 measured with hOX1R (orexin-1 receptor) (Homo sapiens, UniProt O43613) for C[C@@H]1C[C@@H](Nc2cc(C(F)F)ccn2)CN1C(=O)c1cscc1-n1nccn1 .
result: > 10 µM

query: Supply IC50 measured with hOX1R (orexin-1 receptor) (Homo sapiens, UniProt O43613) for COc1cccnc1N[C@@H]1C[C@@H](C)N(C(=O)c2nccnc2-n2cccn2)C1 .
result: 10 µM

query: Supply IC50 measured with hOX1R (orexin-1 receptor) (Homo sapiens, UniProt O43613) for COc1cccnc1N[C@@H]1C[C@@H](C)N(C(=O)c2nccnc2-c2ccccn2)C1 .
result: 10 µM

query: Supply IC50 measured with hOX1R (orexin-1 receptor) (Homo sapiens, UniProt O43613) for Cc1c(C#N)ccnc1N(C)[C@@H]1C[C@@H](C)N(C(=O)c2ccccc2-n2nccn2)C1 .
result: > 10 µM

query: Supply IC50 measured with hOX1R (orexin-1 receptor) (Homo sapiens, UniProt O43613) for C[C@@H]1C[C@@H](N(C)c2cc(C#N)ccn2)CN1C(=O)c1ccccc1-n1nccn1 .
result: > 10 µM

query: Supply IC50 measured with hOX1R (orexin-1 receptor) (Homo sapiens, UniProt O43613) for C[C@@H]1C[C@@H](Nc2nccc3ccccc23)CN1C(=O)c1ccccc1-n1nccn1 .
result: 0.257 µM
